This collection of values is drawn from the supplement of paper PMC7877785.

Attribute: self-splicing fitness (ln)
- assay.method.text: self-splicing fitness, log relative to wild type (ln ratio); higher = more splicing; Tetrahymena group I intron in knt gene, E. coli kanamycin selection, DiMSum; sequences stand for … in CUCUCU…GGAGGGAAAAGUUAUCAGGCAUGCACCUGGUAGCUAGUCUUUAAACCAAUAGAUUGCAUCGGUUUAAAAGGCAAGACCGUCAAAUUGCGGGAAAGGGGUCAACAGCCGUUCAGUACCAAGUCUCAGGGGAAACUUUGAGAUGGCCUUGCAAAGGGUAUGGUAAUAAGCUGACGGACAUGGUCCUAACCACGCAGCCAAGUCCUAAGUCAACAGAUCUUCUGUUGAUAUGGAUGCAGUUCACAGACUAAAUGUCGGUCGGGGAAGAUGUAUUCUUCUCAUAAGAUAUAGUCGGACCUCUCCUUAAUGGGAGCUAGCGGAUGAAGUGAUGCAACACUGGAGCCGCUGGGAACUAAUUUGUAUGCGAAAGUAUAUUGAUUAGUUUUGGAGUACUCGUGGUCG;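 note: selection with 25 µg/mL kanamycin versus none on LB agar overnight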
- particulars: 37 °C
# output: bare number, no unit

Worked examples, 3 sequences total:
For `GGUAAGCAAUAUUACGGGUC` , what is its reported self-splicing fitness (ln)?
-1.81

Next up: `UGUAAGCAAUAUUACGAACU`
-0.682

Next up: `AUUGAGCAAUAUUACGAACG`
-0.91

More entries:
For `CAGUAGCAAUAUUACGACAU` , what is its reported self-splicing fitness (ln)?
-1.83

----------
- assay.method.text: self-splicing fitness, log relative to wild type (ln ratio); higher = more splicing; Tetrahymena group I intron in knt gene, E. coli kanamycin selection, DiMSum; sequences stand for … in CUCUCU…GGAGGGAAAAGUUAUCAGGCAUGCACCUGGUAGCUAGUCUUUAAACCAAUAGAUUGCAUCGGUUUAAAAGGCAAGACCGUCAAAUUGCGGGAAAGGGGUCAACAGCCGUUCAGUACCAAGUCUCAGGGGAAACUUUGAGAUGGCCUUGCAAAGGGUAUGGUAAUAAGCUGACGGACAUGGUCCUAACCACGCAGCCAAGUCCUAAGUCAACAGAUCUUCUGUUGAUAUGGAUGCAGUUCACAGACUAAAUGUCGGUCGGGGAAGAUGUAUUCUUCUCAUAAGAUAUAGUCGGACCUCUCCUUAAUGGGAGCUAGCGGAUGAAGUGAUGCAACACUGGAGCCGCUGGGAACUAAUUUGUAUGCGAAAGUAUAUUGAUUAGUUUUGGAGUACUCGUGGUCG
- particulars: 37 °C
parameter: self-splicing fitness (ln)
# output: bare number, no unit

For `GGAGAGCAAUAUUACGGAUA` , what is its reported self-splicing fitness (ln)?
-2.05

Next up: `CAAAAGCAAUAUUACGCUAU`
-2.09

Next up: `ACCAAGCAAUAUUACGCACA`
0.0111

Next up: `AUCUAGCAAUAUUACGAUCC`
-0.573

Next up: `AGUAAGCAAUAUUACGUGGU`
-2.59

Next up: `CGAAAGCAAUAUUACGACCC`
-0.478

Next up: `AGGGAGCAAUAUUACGUACG`
-2.2

More entries:
For `CACAAGCAAUAUUACGACCU` , what is its reported self-splicing fitness (ln)?
-2.1

----------
- assay.method.text: self-splicing fitness, log relative to wild type (ln ratio); higher = more splicing; Tetrahymena group I intron in knt gene, E. coli kanamycin selection, DiMSum; sequences stand for … in CUCUCU…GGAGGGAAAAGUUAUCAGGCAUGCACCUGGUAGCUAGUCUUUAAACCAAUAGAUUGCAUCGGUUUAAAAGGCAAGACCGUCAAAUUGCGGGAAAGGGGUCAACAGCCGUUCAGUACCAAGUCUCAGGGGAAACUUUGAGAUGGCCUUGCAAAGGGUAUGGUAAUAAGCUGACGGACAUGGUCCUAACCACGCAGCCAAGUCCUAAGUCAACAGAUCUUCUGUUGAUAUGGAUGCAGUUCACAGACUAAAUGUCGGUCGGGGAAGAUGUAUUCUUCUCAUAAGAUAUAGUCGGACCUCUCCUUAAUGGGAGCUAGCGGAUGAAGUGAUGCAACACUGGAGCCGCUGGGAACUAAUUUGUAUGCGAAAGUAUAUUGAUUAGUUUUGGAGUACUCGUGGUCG
- particulars: 30 °C
Attribute: self-splicing fitness (ln)
# output: bare number, no unit

For `AGAUAGCAAUAUUACGUACA` , what is its reported self-splicing fitness (ln)?
-1.26

More entries:
For `UCCAAGCAAUAUUACGUUAC` , what is its reported self-splicing fitness (ln)?
-4.16

Next up: `GUGCAGCAAUAUUACGGUCG`
-1.29

Next up: `AAAAAGCAAUAUUACGGGCU`
-1.55

Next up: `AAAUAGCAAUAUUACGUAGG`
-2.59

----------
- assay.method.text: self-splicing fitness, log relative to wild type (ln ratio); higher = more splicing; Tetrahymena group I intron in knt gene, E. coli kanamycin selection, DiMSum; sequences stand for … in CUCUCU…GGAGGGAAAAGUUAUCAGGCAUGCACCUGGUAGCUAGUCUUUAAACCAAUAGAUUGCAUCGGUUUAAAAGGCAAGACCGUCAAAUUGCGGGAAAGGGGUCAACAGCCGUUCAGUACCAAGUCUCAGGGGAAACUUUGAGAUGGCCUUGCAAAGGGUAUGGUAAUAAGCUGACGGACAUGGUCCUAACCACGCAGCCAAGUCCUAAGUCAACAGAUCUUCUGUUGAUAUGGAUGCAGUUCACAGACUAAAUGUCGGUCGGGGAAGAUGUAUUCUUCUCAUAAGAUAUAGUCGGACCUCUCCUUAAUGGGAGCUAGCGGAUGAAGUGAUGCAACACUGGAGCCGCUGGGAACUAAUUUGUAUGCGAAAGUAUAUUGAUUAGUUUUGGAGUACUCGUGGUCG
- particulars: 30 °C
Attribute: self-splicing fitness (ln)
# output: bare number, no unit

For `CUCCAGCAAUAUUACGCAAG` , what is its reported self-splicing fitness (ln)?
-3.52

Next up: `GGAAAGCAAUAUUACGUAUA`
-2.2

Next up: `AUCCAGCAAUAUUACGUGGA`
-4.34

Next up: `ACGCAGCAAUAUUACGACAU`
-0.318

Next up: `AGAUAGCAAUAUUACGCGAU`
-2.53

Next up: `CUAAAGCAAUAUUACGGCCU`
-3.01

More entries:
For `ACGAAGCAAUAUUACGAUAA` , what is its reported self-splicing fitness (ln)?
-1.62

Next up: `AGCUAGCAAUAUUACGUGAU`
-3.09

----------
- assay.method.text: self-splicing fitness, log relative to wild type (ln ratio); higher = more splicing; Tetrahymena group I intron in knt gene, E. coli kanamycin selection, DiMSum; sequences stand for … in CUCUCU…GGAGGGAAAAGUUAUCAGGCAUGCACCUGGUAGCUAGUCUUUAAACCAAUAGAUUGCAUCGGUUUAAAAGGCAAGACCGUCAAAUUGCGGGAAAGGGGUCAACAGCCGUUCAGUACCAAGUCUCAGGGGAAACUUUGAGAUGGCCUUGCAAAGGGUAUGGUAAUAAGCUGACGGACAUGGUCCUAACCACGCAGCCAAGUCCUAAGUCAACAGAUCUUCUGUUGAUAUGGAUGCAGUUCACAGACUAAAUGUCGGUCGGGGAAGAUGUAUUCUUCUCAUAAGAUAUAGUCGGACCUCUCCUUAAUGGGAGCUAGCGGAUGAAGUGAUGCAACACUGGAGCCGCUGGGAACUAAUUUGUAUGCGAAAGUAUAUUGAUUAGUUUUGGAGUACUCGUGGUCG
- particulars: 30 °C
parameter: self-splicing fitness (ln)
# output: bare number, no unit

Worked examples, 5 sequences total:
For `CCUGAGCAAUAUUACGGUAA` , what is its reported self-splicing fitness (ln)?
-3.76

Next up: `UUGCAGCAAUAUUACGGUUG`
-3.07

Next up: `UCCUAGCAAUAUUACGCUCU`
-3.33

Next up: `UACCAGCAAUAUUACGGUAU`
-3.15

Next up: `CGCGAGCAAUAUUACGUUCA`
-2.43

Next sequence, self-splicing fitness (ln) to be filled in.
For `AACUAGCAAUAUUACGCUAC` , what is its reported self-splicing fitness (ln)?
-3.46

----------
Attribute: self-splicing fitness (ln)
- assay.method.text: self-splicing fitness, log relative to wild type (ln ratio); higher = more splicing; Tetrahymena group I intron in knt gene, E. coli kanamycin selection, DiMSum; sequences stand for … in CUCUCU…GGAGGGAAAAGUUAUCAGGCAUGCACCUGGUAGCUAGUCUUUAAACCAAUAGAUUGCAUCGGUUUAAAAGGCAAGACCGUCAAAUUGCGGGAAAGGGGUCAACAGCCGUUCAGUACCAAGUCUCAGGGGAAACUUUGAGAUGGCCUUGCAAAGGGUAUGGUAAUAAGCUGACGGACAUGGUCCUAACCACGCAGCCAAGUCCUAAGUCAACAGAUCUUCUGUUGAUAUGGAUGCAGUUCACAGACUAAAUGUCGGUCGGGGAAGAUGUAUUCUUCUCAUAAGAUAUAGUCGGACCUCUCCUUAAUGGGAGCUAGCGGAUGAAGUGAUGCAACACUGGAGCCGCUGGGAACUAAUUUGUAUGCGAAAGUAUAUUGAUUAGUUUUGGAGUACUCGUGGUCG
- particulars: 30 °C
# output: bare number, no unit

Worked examples, 2 sequences total:
For `CACGAGCAAUAUUACGCGCA` , what is its reported self-splicing fitness (ln)?
-3.24

Next up: `UCCUAGCAAUAUUACGUAUU`
-4.31

More entries:
For `CCACAGCAAUAUUACGGCGU` , what is its reported self-splicing fitness (ln)?
-3.24

Next up: `UUAGAGCAAUAUUACGUACA`
-1.7

Next up: `CCUUAGCAAUAUUACGCCCA`
-1.96

Next up: `UGGGAGCAAUAUUACGGUUU`
-3.58

Next up: `AGAGAGCAAUAUUACGUGCG`
-1.98

Next up: `GGCAAGCAAUAUUACGGCUG`
-1.68

Next up: `GACGAGCAAUAUUACGCGCG`
-3.15
